condition label: pH 5.0
Class boundaries, taken from values of logD, are as follows: interval 1 (below 4), interval 2 (4 to below 5), interval 3 (5 or more)

Hey, which category is COC(=O)c1ccc(N(C(=O)C(F)(F)F)[C@@H]2C=CS(=O)(=O)C2)cc1 in, do you know?
interval 1

Hey, which category is O=C(OCCN1C(=O)c2ccccc2C1=O)[C@@H]1C[C@H](O)CN1S(=O)(=O)c1ccc(Cl)cc1 in, do you know?
interval 1

Hey, which category is Cc1ccc(C(=O)COc2cccc(N3C(=O)[C@@H]4[C@H]5CC[C@H](C5)[C@@H]4C3=O)c2)cc1C in, do you know?
interval 2

Hey, which category is O=C(NC[C@@H]1CCCO1)c1sc2ccccc2c1Cl in, do you know?
interval 1

Hey, which category is Cc1cc(Cl)ccc1NC(=S)NCCc1c[nH]c2ccccc12 in, do you know?
interval 2

Hey, which category is CCN(CC)C(=O)[C@@]12CC[C@@](C)(C(=O)O1)C2(C)C in, do you know?
interval 1

Hey, which category is CC(=O)c1c(C)[nH]c(C(=O)COC(=O)c2ccccc2NC(=O)c2ccco2)c1C in, do you know?
interval 2

Hey, which category is C[C@@H]1CCCC[C@H]1NC(=O)COC(=O)C1=COCCO1 in, do you know?
interval 1

Hey, which category is C[C@H]1CN(C(=O)c2csc3c2CCCC3)/C(=N/c2ccc(Cl)cc2)S1 in, do you know?
interval 3

Hey, which category is CC(=O)C12c3ccccc3C(c3ccccc31)[C@H]1C(=O)N(c3ccc(C)c([N+](=O)[O-])c3)C(=O)[C@@H]12 in, do you know?
interval 2

Hey, which category is CCOC(=O)c1c(C)nc(SC[C@@]2(O)CCCC[C@@H]2SC)c(C#N)c1-c1ccccc1 in, do you know?
interval 3

Hey, which category is C[C@@H]1CCC[C@H](C)N1C(=O)COC(=O)c1ccc2c(c1)S(=O)(=O)c1ccccc1C2=O in, do you know?
interval 2

Hey, which category is COc1cc([C@H]2C(C(=O)c3ccccc3)=C(N)N(c3ccccc3C(F)(F)F)C3=C2C(=O)CCC3)cc(OC)c1OC in, do you know?
interval 2

Hey, which category is COc1cc(C#N)ccc1OC(=O)/C=C/c1cccc(F)c1 in, do you know?
interval 2

Hey, which category is O=C(/C=C/c1ccccc1)Nc1cccc(NC(=O)c2cccc(Cl)c2)c1 in, do you know?
interval 3

Hey, which category is CCC(=O)N1c2ccccc2NC2=C(C(=O)CC(C)(C)C2)[C@H]1c1ccc(-c2ccc([N+](=O)[O-])cc2Cl)o1 in, do you know?
interval 3

Hey, which category is CCOc1cc([C@H]2[C@@H]3CN(C(=O)OC(C)(C)C)CC=C3C(C#N)=C(N)C2(C#N)C#N)ccc1OC(C)C in, do you know?
interval 3

Hey, which category is CCCOc1ccc(NC(=O)C[C@H]2C(=O)N(c3ccc(Cl)cc3)C(=S)N2C2CC2)cc1 in, do you know?
interval 3

Hey, which category is Cc1cc(Cl)ccc1O[C@@H](C)C(=O)NC1CCCCCC1 in, do you know?
interval 3

Hey, just so you know, these numbers are from the SangsterLogP compilation.
